Hello, the source for this data is patent EP1038880B1, in case you need it.

target: GR complex
experimental protocol: [35S]TBPS binding assay (inhibition of [35S]TBPS binding, cerebral cortex P2 homogenate)
Design: species or system rat
condition info: 2 nM [35S]TBPS, rat cerebral cortex P2 homogenate
Measured pIC50 accompanies every entry in the list below.
// pIC50 here means minus log10 of the molar concentration (mol/L)

# molecule, pIC50
measured = [
    ("CC(=O)CCCC#C[C@@]1(O)CC[C@@]2(C)[C@H](CC[C@@H]3[C@@H]2CC[C@]2(C)[C@@H](C(C)=O)CC[C@@H]32)C1", 7.05),
    ("CC(=O)c1ccc(C#C[C@@]2(O)CC[C@@]3(C)[C@@H](CC[C@@H]4[C@@H]3CC[C@]3(C)[C@@H](C(C)=O)CC[C@@H]43)C2)cc1", 8.30),
    ("CC(=O)[C@H]1CC[C@H]2[C@@H]3CC[C@@H]4C[C@@](O)(C#Cc5ccncc5)CC[C@]4(C)[C@H]3CC[C@]12C", 6.83),
]

As a next step, examine the molecule that follows.
Exam item: Which pIC50 is reported for this molecule? CC(=O)OCCC#CC1(O)CCC2(C)C(CCC3C2CCC2(C)C(C(C)=O)CCC32)C1 (stereo not shown)
Marked response: 7.70

====

System: GR complex
experimental protocol: [35S]TBPS binding assay (inhibition of [35S]TBPS binding, cerebral cortex P2 homogenate)
Set-up: species or system rat
condition info: maximum inhibition of [35S]TBPS binding
readout: IMAX

# compound, target, IMAX
rows = [
    ("CC(=O)OCCCCC#C[C@@]1(O)CC[C@@]2(C)[C@H](CC[C@@H]3[C@@H]2CC[C@]2(C)[C@@H](C(C)=O)CC[C@@H]32)C1", "GR complex", "99%"),
    ("C[C@@]1(O)CC[C@@]2(C)[C@@H](CC[C@@H]3[C@@H]2CC[C@]2(C)[C@@H](C(=O)CSS(=O)(=O)[O-])CC[C@@H]32)C1.[Na+]", "GR complex", "101%"),
    ("Cc1cc(C)n(CC(=O)[C@H]2CC[C@H]3[C@@H]4CC[C@@H]5C[C@H](O)CC[C@]5(C)[C@H]4CC[C@]23C)n1", "GR complex", "77%"),
    ("CC(=O)CCCC#C[C@@]1(O)CC[C@@]2(C)[C@H](CC[C@@H]3[C@@H]2CC[C@]2(C)[C@@H](C(C)=O)CC[C@@H]32)C1", "GR complex", "101%"),
    ("CC(=O)[C@H]1CC[C@H]2[C@@H]3CC[C@@H]4C[C@@](O)(C#CCCCO)CC[C@]4(C)[C@H]3CC[C@]12C", "GR complex", "100%"),
    ("CC(=O)C1CCC2C3CCC4CC(O)(C#CCn5nccn5)CCC4(C)C3CCC12C (stereo not shown)", "GR complex", "98%"),
]

As a next step, examine the compound that follows.
Exam item: Which IMAX is reported with GR complex for this entry: C#C[C@@]1(O)CC[C@@]2(C)[C@H](CC[C@@H]3[C@@H]2CC[C@]2(C)[C@@H](C(=O)Cn4cncn4)CC[C@@H]32)C1 ?
Marked response: 98%

====

System: GR complex
experimental protocol: [35S]TBPS binding assay (inhibition of [35S]TBPS binding, cerebral cortex P2 homogenate)
Parameters: species or system rat
condition info: maximum inhibition of [35S]TBPS binding
readout: IMAX (%)
Just the number in %, nothing appended.

# compound, unit of measurement, IMAX
records = [
    ("C#CCOCC#C[C@@]1(O)CC[C@@]2(C)[C@H](CC[C@@H]3[C@@H]2CC[C@]2(C)[C@@H](C(C)=O)CC[C@@H]32)C1", "%", 105),
    ("C[C@]12CC[C@@H](O)C[C@H]1CC[C@@H]1[C@@H]2CC[C@]2(C)[C@@H](C(=O)Cn3cncn3)CC[C@@H]12", "%", 60),
    ("CC(=O)[C@H]1CC[C@H]2[C@@H]3CC[C@@H]4C[C@@](O)(CCc5ccccc5O)CC[C@]4(C)[C@H]3CC[C@]12C", "%", 83),
]

As a next step, examine the compound that follows.
Exam item: Which IMAX is reported for this compound? C[C@]12CC[C@H]3[C@@H](CC[C@@H]4C[C@@](O)(C#CCCO)CC[C@@H]43)[C@@H]1CC[C@@H]2C(=O)Cn1nccn1
Marked response: 93

====

target: GR complex
experimental protocol: [35S]TBPS binding assay (inhibition of [35S]TBPS binding, cerebral cortex P2 homogenate)
Set-up: species or system rat
condition info: 2 nM [35S]TBPS, rat cerebral cortex P2 homogenate
Measured pIC50 accompanies every entry in the list below.
// pIC50 here means minus log10 of the molar concentration (mol/L)

Answered cases to consult:
# molecule, pIC50
data = [
    ("CC(=O)[C@H]1CC[C@H]2[C@@H]3CC[C@H]4C[C@@](O)(C#CCC(C)O)CC[C@]4(C)[C@H]3CC[C@]12C (mixture of isomers)", 6.75),
    ("CC(=O)[C@H]1CC[C@H]2[C@@H]3CC[C@@H]4C[C@@](O)(C#CCn5cccn5)CC[C@]4(C)[C@H]3CC[C@]12C", 7.09),
    ("C[C@]12CC[C@@H](O)C[C@@H]1CC[C@@H]1[C@@H]2CC[C@]2(C)[C@@H](C(=O)Cn3cccn3)CC[C@@H]12", 7.00),
    ("C[C@]12CC[C@@H](O)C[C@H]1CC[C@@H]1[C@@H]2CC[C@]2(C)[C@@H](C(=O)Cn3cnc([N+](=O)[O-])c3)CC[C@@H]12", 6.57),
    ("CC(=O)C1CCC2C3CCC4CC(O)(C#CC=O)CCC4(C)C3CCC12C (stereo not shown)", 5.76),
]

Exam item: Which pIC50 is reported with GR complex for this entry: CC(=O)C1CCC2C3CCC4CC(O)(C#CCCO)CCC4C3CCC12C (stereo not shown) ?
Marked response: 7.66

Exam item: Which pIC50 is reported with GR complex for this entry: CC(=O)[C@H]1CC[C@H]2[C@@H]3CC[C@@H]4C[C@@](O)(C#Cc5ccc(-c6ccccc6)cc5)CC[C@]4(C)[C@H]3CC[C@]12C ?
Marked response: 7.37

====

Measured IC50 accompanies every entry in the list below.
target: GR complex
experimental protocol: [35S]TBPS binding assay (inhibition of [35S]TBPS binding, cerebral cortex P2 homogenate)
Design: species or system rat
condition info: 2 nM [35S]TBPS, rat cerebral cortex P2 homogenate
Method: We performed several experiments to determine the nature of the modulation of [^35S]TBPS as affected by the compounds of the invention. These procedures were performed as follows: Brains from male Sprague-Dawley rats were removed immediately following sacrifice and the cerebral cortices dissected over ice. […] Briefly, the cortices were gently homogenized in 0.32 M sucrose followed by centrifugation at 1000 x g for 10 minutes. The supernatant was collected and centrifuged at 9000 x g for 20 minutes. […]
Just the number in nM, nothing appended.

Answered cases to consult:
# molecule, unit of measurement, data value
measured = [
    ("CC(=O)[C@H]1CC[C@H]2[C@@H]3CC[C@@H]4C[C@@](O)(Cc5ccccc5)CC[C@]4(C)[C@H]3CC[C@]12C [3β-Benzyl-3α-hydroxy-5β-pregnan-20-one, 3α-hydroxy-3β-benzyl-5β-pregnan-20-one]", "nM", 109),
    ("CC(=O)[C@H]1CC[C@H]2[C@@H]3CC[C@@H]4C[C@@](O)(C#CCO)CC[C@]4(C)[C@H]3CC[C@]12C", "nM", 137),
    ("C[C@@]1(O)CC[C@@]2(C)[C@@H](CC[C@@H]3[C@@H]2CC[C@]2(C)[C@@H](C(=O)Cn4ccnc4)CC[C@@H]32)C1", "nM", 97),
    ("CC12CCC(O)CC1CCC1C2CCC2(C)C(C(=O)Cn3cnc4ccccc43)CCC12 (stereo not drawn)", "nM", 53),
    ("CC(=O)Oc1ccc(C#C[C@@]2(O)CC[C@@]3(C)[C@H](CC[C@@H]4[C@@H]3CC[C@]3(C)[C@@H](C(C)=O)CC[C@@H]43)C2)cc1", "nM", 1430),
]

Exam item: Which IC50 is reported for this molecule? CC(=O)[C@H]1CC[C@H]2[C@@H]3CC[C@@H]4C[C@@](O)(C#Cc5ccc(C#N)cc5)CC[C@]4(C)[C@H]3CC[C@]12C
Marked response: 73

====

Tested on: GR complex
experimental protocol: [35S]TBPS binding assay (inhibition of [35S]TBPS binding, cerebral cortex P2 homogenate)
Design: species or system rat
condition info: maximum inhibition of [35S]TBPS binding
Measured IMAX accompanies every entry in the list below.
Just the number in %, nothing appended.

# molecule, unit of measurement, IMAX
rows = [
    ("CC(=O)[C@H]1CC[C@H]2[C@@H]3CC[C@@H]4C[C@@](O)(C#CCCO)CC[C@]4(C)[C@H]3C(=O)C[C@]12C", "%", 102),
    ("C[C@]12CC[C@](O)(C#CCCO)C[C@H]1CC[C@@H]1[C@@H]2CC[C@]2(C)[C@@H](C(=O)CSS(=O)(=O)O)CC[C@@H]12", "%", 97),
]

Exam item: Which IMAX is reported for this molecule? CC(=O)OCCC#CC1(O)CCC2(C)C(CCC3C2CCC2(C)C(C(C)=O)CCC32)C1 (stereo not shown)
Marked response: 96

Exam item: Which IMAX is reported for this molecule? C[C@@]1(O)CC[C@@]2(C)[C@@H](CC[C@@H]3[C@@H]2CC[C@]2(C)[C@@H](C(=O)Cn4ccnc4)CC[C@@H]32)C1
Marked response: 95
